These entries and their values trace back to PubChem BioAssay (NCATS).

# Tested on: Tov-21-G
# procedure.summary: Primary qHTS to identify gynecologic anti-cancer compounds using libraries of approved drugs and bioactive compounds (AID 1345084); further: nearly all actives have a fitted effect of over 55% in size
# conditions: Gynecologic cancer cell panel viability, ATPlite luminescence, 48 h; series mostly up to 57.5 µM
Results filed as inconclusive are left out. Calls of active or inactive are those of the source. The call rests on the fitted dose curve; in most records, active means well fitted cell-killing curve with a large enough effect; inconclusive means small, poorly fitted or top-dose-only effect, or effect the other way; inactive means flat fitted curve, though single readings scatter.
Assign a class; possible classes are T = active, F = inactive

>>> assigned_class("CCCCCn1cc(C(=O)Oc2cccc3cccnc23)c2ccccc21")
"F"
>>> assigned_class("NC(=O)[C@@H](CC1CC1)[C@@H](CCC(F)(F)F)C(=O)N[C@H]1N=C(c2ccccc2)c2cccc(F)c2NC1=O")
"F"
>>> assigned_class("Cc1ccccc1CN1CCC(N2CCC(n3c(=O)[nH]c4ccccc43)CC2)CC1")
"F"
>>> assigned_class("C/C=C1/CN2CC[C@]34C(=Nc5ccc(OC)cc53)C2C[C@@H]1C4(CO)C(=O)OC (some centres not stated)")
"F"
>>> assigned_class("Cc1c(N[C@@H](c2nnc(-c3ccc(C#N)cc3)o2)[C@H](C)O)ccc(C#N)c1Cl")
"F"

Q. Hey, what did the test say about C[C@]12CC[C@H](O)C[C@@]1(O)CC[C@@H]1[C@@H]2CC[C@]2(C)[C@@H](c3ccc(=O)oc3)CC[C@]12O ?
A. F

Q. Hey, what did the test say about Cc1[nH]c2ccc(Cl)cc2c1CCN(C)C ?
A. F

Q. Hey, what did the test say about CC(=O)OC[C@]12C[C@H](OC(=O)CC(C)C)C(C)=C[C@H]1O[C@@H]1[C@H](O)C[C@@]2(C)[C@]12CO2 ?
A. T

Q. Hey, what did the test say about C[C@]12CCC(=O)C=C1CC[C@@H]1[C@@H]2[C@@H](O)C[C@]2(C)C(=O)CC[C@@H]12 ?
A. F

Q. Hey, what did the test say about O=C1CN=C(c2cccc(Br)c2)c2oc3ccccc3c2N1 ?
A. F

Q. Hey, what did the test say about C=C1CC[C@H]2[C@@H](/C=C(\C)C(=O)[C@@]3(OC(C)=O)C[C@H](C)[C@H](OC(=O)c4ccccc4)[C@@H]3[C@H]1OC(C)=O)C2(C)C ?
A. F

Q. Hey, what did the test say about CC(=O)OC[C@]12C[C@H](O)C(C)=C[C@H]1O[C@@H]1[C@H](O)[C@@H](OC(C)=O)[C@@]2(C)[C@]12CO2 ?
A. T

Q. Hey, what did the test say about COC1CC(O[C@H]2CC[C@]3(C)C4CC[C@]5(C)[C@@H](C6=CC(=O)OC6)[C@@H](OC(C)=O)C[C@]5(O)C4CC[C@@H]3C2)OC(C)C1O[C@@H]1O[C@H](CO)[C@@H](O)[C@H](O)[C@H]1O (some centres not stated) ?
A. T

Q. Hey, what did the test say about CN1CN(c2ccccc2)C2(CCN(CCCC(=O)c3ccc(F)cc3)CC2)C1=O ?
A. F

Q. Hey, what did the test say about COc1ccc(C23CCC(=O)C=C2N(C)CC3)cc1OC (configuration not stated) ?
A. F

Q. Hey, what did the test say about CC1=CC(=O)[C@@H](O)[C@]2(C)C3[C@@H](O)[C@@H]4OC(=O)[C@@H]([C@H]4C)[C@]3(C)C(=O)[C@H](O)[C@@H]12 (some centres not stated) ?
A. F

Q. Hey, what did the test say about CN(Cc1cccc(-c2ccncc2)c1)C(=O)Oc1ccc(-c2ccc(C(N)=O)cc2)cc1 ?
A. F

* * *

# procedure.summary: Validation screen for small molecules that induce DNA re-replication in SW480 colon adenocarcinoma cells (AID 504364); further: potency means the concentration at half of the fitted maximal effect
# conditions: DNA re-replication phenotype (high-content imaging); series mostly up to 46.1 µM
Records with an inconclusive call do not appear. The source made the active and inactive calls. Calls come from the whole dose curve; as a rule, active = well fitted activation curve with a large enough effect; inconclusive = small, poorly fitted or top-dose-only effect; inactive = flat fitted curve, though single readings scatter.
endpoint.label: Potency

>>> assay_value("CC(O)C(C)OC(=O)[C@@H]1C[C@@H]2c3cccc4c3c(cn4C(C)C)C[C@H]2N(C)C1 (stereo partly specified)")
"inactive"
>>> assay_value("CC(=O)OCC1=C(C(=O)[O-])N2C(=O)[C@@H](NC(=O)CCC[C@@H](N)C(=O)[O-])[C@H]2SC1.[Zn+2]")
"inactive"
>>> assay_value("COc1ccc2[nH]cc(CCN(C)C)c2c1")
"inactive"
>>> assay_value("N#CC(C#N)=Cc1ccc([N+](=O)[O-])c(O)c1")
"inactive"
>>> assay_value("CN1CCN(c2ccc3ccccc3n2)CC1")
"inactive"

Now let's try a different one.
Q. # input compound: COc1cc([C@@H]2c3cc4c(cc3[C@H](O)C3COC(=O)[C@@H]32)OCO4)cc(OC)c1OC (stereo partly specified) ; wanted: its Potency
A. 32.6 nM (active)

* * *

Below, each entry is listed with its recorded activity change, negative = thiol reactive.
# procedure.summary: Primary fluorescence-based thiol-reactive (MSTI) qHTS assay for identification of artifact compounds. (AID 1845221);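 further: thiol-reactive compounds lower the probe fluorescence signal; nearly all actives have a fitted effect of over 65% in size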
# conditions: MSTI thiol-reactivity probe, 1 h; series mostly up to 53.8 µM
Results filed as inconclusive are left out. The source made the active and inactive calls. Calls come from the whole dose curve; as a rule, active = well fitted inhibition curve with a large enough effect; inconclusive = small, poorly fitted or top-dose-only effect; inactive = no such curve, though single readings can be large or run the other way.

Q. # input compound: C/C=C(\C)C(=O)OC1C2C3(C)CCC(OC4CC(OC)C(OC5OC(C)C(O)C(OC)C5O)C(C)O4)CC3CCC23OC32CCC(C(C)=O)C2(C)C1OC(=O)/C(C)=C/C (stereo not given) ; wanted: its activity change, negative = thiol reactive
A. 84.6% [at 11.5 µM] (inactive)

* * *

# assayed.target: Phospholipid hydroperoxide glutathione peroxidase GPX4 (Homo sapiens) (UniProt P36969)
# Sequence (P36969 whole entry, looked up): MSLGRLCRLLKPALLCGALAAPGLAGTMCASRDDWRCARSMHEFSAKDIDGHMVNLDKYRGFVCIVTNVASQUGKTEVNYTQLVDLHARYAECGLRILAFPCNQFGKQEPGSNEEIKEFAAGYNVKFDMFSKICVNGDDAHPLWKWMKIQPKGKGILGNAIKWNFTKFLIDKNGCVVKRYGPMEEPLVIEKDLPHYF
# procedure.summary: Primary qHTS Assay for Inhibitors of Recombinant Selenoprotein Glutathione Peroxidase 4 (GPX4) (AID 1845192); further: nearly all actives have a fitted effect of over 65% in size
# conditions: recombinant GPX4, GR-coupled NADPH fluorescence, 15 min; series mostly up to 50 µM
Records with an inconclusive call do not appear. Calls of active or inactive are those of the source. The call rests on the fitted dose curve; in most records, active means well fitted inhibition curve with a large enough effect; inconclusive means small, poorly fitted or top-dose-only effect; inactive means flat fitted curve, though single readings scatter.
endpoint.label: outcome

>>> assay_value("CN1C(=O)CN=C(c2ccccc2Cl)c2cc(Cl)ccc21")
"inactive"
>>> assay_value("Fc1cc(F)c2c(c1)[C@H]1C=CC[C@H]1C(c1cccnc1)N2 (some centres undefined)")
"inactive"
>>> assay_value("CN1CCC2=C(C1)c1ccccc1Cc1ccccc12")
"inactive"
>>> assay_value("CC[C@@H]1/C=C/C=C/C[C@H](C)C(O)[C@](C)(O)C(=O)[C@H](C)C(O)[C@H](C)C(=O)[C@H](C)[C@@H](O)[C@H](C)/C=C/C(=O)O[C@H]2[C@@H](C)[C@@H](CC1)O[C@]1(O[C@H](C[C@H](C)O)[C@H](C)CC1=O)[C@@H]2C (some centres undefined)")
"inactive"

* * *

# procedure.summary: Quantitative high throughput screen for delayed death inhibitors of the malarial parasite plastid, 48 hour incubation (AID 488752); further: nearly all actives have a fitted effect of over 65% in size
# conditions: Plasmodium falciparum growth; series mostly up to 28.7 µM
# From the text: NIH Molecular Libraries Probe Production Network [MLPCN] NIH Chemical Genomics Center [NCGC] Assay Provider: David Fidock and Eric Ekland, Columbia University […] We have developed a cell-based assay that measures parasite growth based on the expression of an integrated copy of a firefly luciferase reporter. […] Growth inhibition is detected by a decrease in luciferase activity […]
Inconclusive results are not listed. Active and inactive are the calls of the source. Calls follow the shape of the dose curve; as a rule, active = well fitted inhibition curve with a large enough effect; inconclusive = small, poorly fitted or top-dose-only effect, or effect the other way; inactive = flat fitted curve, though single readings scatter.
Assign a class; possible classes are active, inactive

// below: answered compounds
>>> assigned_class("N#CC(C#N)=Cc1ccc([N+](=O)[O-])c(O)c1")
"inactive"
>>> assigned_class("CN1CCc2cc(O)cc3c2C1Cc1ccc(O)c(O)c1-3 (configuration not stated)")
"active"
>>> assigned_class("C=CCN1CCC2(C)c3cc(O)ccc3CC1C2C (configuration not stated)")
"inactive"
>>> assigned_class("C[N+]1(C)CCc2cc3c(cc2C1C1OC(=O)c2c1ccc1c2OCO1)OCO3 (configuration not stated)")
"inactive"
>>> assigned_class("CN1CCc2cccc3c2C1Cc1ccc(O)c(O)c1-3 (configuration not stated)")
"active"
>>> assigned_class("COc1cc(CCN)ccc1O")
"inactive"

Query compound follows.
Q. Hey, what did the test say about N#C/C(=C\c1ccc(O)c(O)c1)C(=O)NCCCNC(=O)/C(C#N)=C/c1ccc(O)c(O)c1 ?
A. active

* * *

# assayed.target: Nucleoprotein (Lymphocytic choriomeningitis virus (strain Armstrong))
# procedure.summary: qHTS for Inhibitors of the Functional Ribonucleoprotein Complex (vRNP) of Lymphocytic Choriomeningitis Arenaviruses (LCMV): LCMV Primary Screen - GLuc reporter signal (AID 1347086); further: nearly all actives have a fitted effect of over 70% in size; further: potency means the concentration at half of the fitted maximal effect
# conditions: LCMV minigenome vRNP cell assay, Gaussia luciferase reporter; series mostly up to 57.5 µM
Records with an inconclusive call do not appear. Active and inactive are the calls of the source. Calls come from the whole dose curve.
endpoint.label: Potency

// known answers, use as guide
>>> assay_value("Cc1c[nH]c(C=C2C(=O)Nc3ccccc32)c1CCC(=O)O")
"inactive"
>>> assay_value("c1coc(CNc2ncnc3nc[nH]c23)c1")
"inactive"
>>> assay_value("COc1ccc(-c2coc3cc(O[C@@H]4O[C@H](CO)[C@@H](O)[C@H](O)[C@H]4O)c(OC)cc3c2=O)cc1")
"inactive"
>>> assay_value("O=c1c(-c2ccc(O)cc2)coc2cc(O)ccc12")
"inactive"
>>> assay_value("Fc1cccc(/C=N/N=C/c2cccc(F)c2)c1")
"inactive"
>>> assay_value("CC(=O)O[C@@H]1/C=C/[C@](C)(O)C[C@@H](C)C/C=C/[C@H]2[C@H](O)C(C)=C(C)[C@H]3[C@H](Cc4ccccc4)NC(=O)[C@@]123")
"inactive"
>>> assay_value("CCc1nccc2c1[nH]c1ccccc12")
"inactive"
>>> assay_value("CCCCCc1cccc(=O)o1")
"inactive"
>>> assay_value("C[C@]12C=CC(=O)C=C1CC[C@@H]1[C@@H]2[C@@H](O)C[C@@]2(C)[C@@H]1CC[C@]2(O)C(=O)CO")
"inactive"

Now let's try a different one.
Q. # input compound: Oc1ccc(-c2ccc(-c3cc(Nc4cccc(CNC5CC5)c4)n[nH]3)cc2)c(O)c1 ; wanted: its Potency
A. 12.2 µM (active)
